Biological target: T1, leptin receptor (ObR) (UniProt P48357 22-1165, limits assumed)
T1 sequence (looked up): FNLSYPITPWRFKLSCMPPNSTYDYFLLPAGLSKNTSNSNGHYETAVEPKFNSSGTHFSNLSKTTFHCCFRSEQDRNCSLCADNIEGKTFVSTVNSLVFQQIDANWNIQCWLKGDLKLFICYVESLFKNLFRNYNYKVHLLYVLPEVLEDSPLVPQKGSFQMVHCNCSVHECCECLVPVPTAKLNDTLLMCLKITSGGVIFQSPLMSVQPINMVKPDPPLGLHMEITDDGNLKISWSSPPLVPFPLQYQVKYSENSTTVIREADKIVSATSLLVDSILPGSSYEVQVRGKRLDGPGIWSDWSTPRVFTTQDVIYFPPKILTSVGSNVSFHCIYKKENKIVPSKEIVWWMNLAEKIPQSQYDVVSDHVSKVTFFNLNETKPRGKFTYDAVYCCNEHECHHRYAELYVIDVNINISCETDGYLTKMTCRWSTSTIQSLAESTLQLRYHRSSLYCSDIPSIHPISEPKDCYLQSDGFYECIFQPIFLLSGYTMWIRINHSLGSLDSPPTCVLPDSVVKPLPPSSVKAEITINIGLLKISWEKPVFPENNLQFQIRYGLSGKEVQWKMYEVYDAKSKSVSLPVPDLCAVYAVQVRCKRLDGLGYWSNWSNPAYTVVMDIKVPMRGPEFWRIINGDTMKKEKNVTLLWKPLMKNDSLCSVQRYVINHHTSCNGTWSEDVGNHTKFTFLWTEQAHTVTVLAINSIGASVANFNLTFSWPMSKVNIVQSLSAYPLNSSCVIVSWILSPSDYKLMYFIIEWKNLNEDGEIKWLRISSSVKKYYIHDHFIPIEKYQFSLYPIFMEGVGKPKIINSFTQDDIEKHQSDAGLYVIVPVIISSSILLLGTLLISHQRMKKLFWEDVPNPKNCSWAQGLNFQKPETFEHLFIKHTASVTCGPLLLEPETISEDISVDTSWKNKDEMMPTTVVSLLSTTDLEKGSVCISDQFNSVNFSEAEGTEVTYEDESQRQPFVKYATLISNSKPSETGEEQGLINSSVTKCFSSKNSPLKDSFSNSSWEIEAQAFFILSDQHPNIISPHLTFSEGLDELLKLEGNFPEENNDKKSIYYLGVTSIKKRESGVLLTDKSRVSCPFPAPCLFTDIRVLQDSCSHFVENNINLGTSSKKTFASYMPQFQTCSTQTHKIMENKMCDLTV
Assay: cell-based or functional assay
Where no end group is shown, it is not given here.
Can you tell me IC50, inhibition of leptin-induced growth of MCF-7 cells for the items I'm about to list?
Just the number in nM, nothing appended.

For the binder IQKVQDDTKTLIKTIVTRINDISHTQSVSSKQ-NH2 [Full-length LPA-1 (3-34)] , report IC50, inhibition of leptin-induced growth of MCF-7 cells.
39.1

For the binder NVIQISNDLENLRDLLHV-NH2 [Truncated LPA-2 (72-89), D79 (original amino acid)] , report IC50, inhibition of leptin-induced growth of MCF-7 cells.
32

For the binder SRNVIQISNDLENLRDLLHVLAFSKS-NH2 [Full-length LPA-2 (70-95)] , report IC50, inhibition of leptin-induced growth of MCF-7 cells.
33

For the binder VQDDTKTLIKTIVTRINDI-NH2 [Truncated LPA-1 (6-24), T10 (original amino acid)] , report IC50, inhibition of leptin-induced growth of MCF-7 cells.
25.7
